biological target: T1, HLA-A*0201 (human); experiment: iTopia net score;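 further: combined score from peptide binding, ED₅₀ and half-life of peptide complexes with plate-bound HLA-A2 molecules, computed by a proprietary formula in iTopia software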
T1 construct: also called HLA-A2.1; HLA A2.1
assay.endpoint: iScore

What iScore value was documented for this binder, CLQTNIDHL [cdr2 121-129 CLQTNIDHL] ? 0.176

What iScore value was documented for this binder, GVNAQSEPV [cdr2 391-399 GVNAQSEPV] ? 0.292

What iScore value was documented for this binder, ECLQTNIDH [cdr2 120-128 ECLQTNIDH] ? 0.178

What iScore value was documented for this binder, KLVPDSLYV [cdr2 273-281 KLVPDSLYV] ? 0.499
